System: Ps. aeruginosa SR-24
Experiment: MIC against Ps. aeruginosa SR-24
Assay type: cell-based
Conditions: Pseudomonas aeruginosa, SR24; Table III; P (key, unit and inoculum given only in Table I)
Where a name gives a salt, the structure may show the parent alone.
Consider the following molecules; for each one, report its MIC.
One number for each entry, in µg/mL.

Below, each entry is followed by its recorded MIC result.
MOLECULE	MIC [µg/mL]
CC(O)[C@H]1C(=O)N2C(C(=O)O)=C(CN3CCCCC3)[C@H](C)[C@H]12 (stereo partly shown) [Table III No. 4, sodium salt]	50
CC(O)[C@H]1C(=O)N2C(C(=O)O)=C(CN3CCC(N)C3)[C@H](C)[C@H]12 (stereo partly shown)	3.13
CC(O)[C@H]1C(=O)N2C(C(=O)O)=C(CN3CCCC3)[C@H](C)[C@H]12 (stereo partly shown)	12.5

For the next question, use this molecule.
Task: I have this molecule here, CC(O)[C@H]1C(=O)N2C(C(=O)[O-])=C(CN[n+]3ccccc3)[C@H](C)[C@H]12 (stereo partly shown) , and I need its recorded MIC.
Result: 12.5
